Origin of the recorded values: PubChem BioAssay

- assay_protocol: antimalarial activity against Dd2 strain (AID 2302);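 note: 0% = DMSO untreated growth and 100% = chloroquine plus artemisinin killed control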
- assay_context: P. falciparum Dd2 in RBCs, LDH growth readout, 72 h; at 2 µM; stronger effect = higher value
result_type: growth inhibition (%)
I only need the number, in %, no unit after it.

Example entries begin here.
Data request: Fill blank: measured growth inhibition of the compound O=C(NCCN1CCOCC1)c1ccc(CNC(=O)c2ccc(O)c(-c3ccc(Cl)c(Cl)c3)c2)cc1 is ____.
Data returned: 55

Data request: Proceed to CSc1ccc2ccccc2c1CCNCCCCNCCc1c(SC)ccc2ccccc12
Data returned: 60

Data request: Proceed to CCCCCCCOc1ccc(NC(=O)Nc2ccc(Cn3ncc(N4CCCNCC4)c(Cl)c3=O)cc2)cc1
Data returned: 28

Data request: Proceed to CC(CNc1nc(NCC(c2ccccc2)c2ccccc2)c2[nH]cnc2n1)c1ccccc1 (centres undefined)
Data returned: 24

Data request: Proceed to COc1ccc2c(c1)CC(NCc1ccc(-c3ccc4nc[nH]c4c3)cc1)C2 (centres undefined)
Data returned: 71

Data request: Proceed to COc1ccc(C(=O)N2CCC3(CC2)C(=O)N(CC(=O)NCC2CCCCC2)CN3c2ccccc2)cc1
Data returned: 99

Data request: Proceed to Cc1ccc(N2C(=O)C3C(C2=O)[C@]2(c4ccccc4)C(=O)[C@@]3(c3ccccc3)C(c3ccccc3)=C2c2ccccc2)cc1 (some centres undefined)
Data returned: 96

Data request: Proceed to O=C(Nc1ccc(Cl)c(Cl)c1)N1CCC(NCc2cccc([N+](=O)[O-])c2)CC1
Data returned: 12

Others:
Data request: Fill blank: measured growth inhibition of the compound COc1c(C)[nH]c(C)c(-c2ccc(Oc3cccc(C(F)(F)F)c3)cc2)c1=O is ____.
Data returned: 96

====

- system_name: L-lactate dehydrogenase (Plasmodium falciparum (isolate CDC / Honduras)) (UniProt Q27743)
- Sequence (Q27743 whole entry, looked up): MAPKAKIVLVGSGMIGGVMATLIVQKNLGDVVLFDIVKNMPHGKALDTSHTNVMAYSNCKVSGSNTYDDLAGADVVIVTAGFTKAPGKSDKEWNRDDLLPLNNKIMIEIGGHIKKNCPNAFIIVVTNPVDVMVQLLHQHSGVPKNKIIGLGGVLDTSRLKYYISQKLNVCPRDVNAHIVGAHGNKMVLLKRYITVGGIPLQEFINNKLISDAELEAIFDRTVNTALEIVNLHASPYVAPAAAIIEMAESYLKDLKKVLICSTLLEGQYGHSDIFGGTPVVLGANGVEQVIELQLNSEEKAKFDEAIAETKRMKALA
- assay_protocol: PfLDH activity inhibition – cell lysate, 3D7 strain, counter-screen for P. falciparum growth inhibition project (AID 2304);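 note: 0% = vehicle and 100% = reference inhibitor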
- assay_context: P. falciparum 3D7 crude extract, LDH APAD/NBT absorbance; at 2 µM; stronger effect = higher value
Catalogue of inhibition readings, one per entry.
I only need the number, in %, no unit after it.

Example entries begin here.
Data request: Fill blank: measured inhibition of the compound NC(N)=Nc1ccc(Cc2ccc(N=C(N)N)cc2)cc1 is ____.
Data returned: -1

Data request: Proceed to COc1ccc(CNCc2ccc(-c3cccc(-c4nc5ccc(F)cc5[nH]4)c3)cc2)cc1
Data returned: 3

Data request: Proceed to OCCN1CCN(Cc2cccc(-c3cccc(-c4nc5ccc(F)cc5[nH]4)c3)c2)CC1
Data returned: -2

Data request: Proceed to COc1ccc(CNCCc2cccs2)cc1-c1cccc(S(=O)(=O)NCCN2CCCC2)c1
Data returned: -1

Data request: Proceed to COc1ccc2nccc(NN=Cc3cccnc3)c2c1
Data returned: -6

Data request: Proceed to COc1ccc(NC(=O)CSc2nc(-c3ccccc3Cl)ns2)cc1
Data returned: 0

Data request: Proceed to O=[N+]([O-])c1cc2c(cc1C=NNc1nc(Nc3ccccc3)nc(Nc3ccccc3)n1)OCO2
Data returned: -2

Data request: Proceed to O=C(/C=C/c1ccc(Cl)c(Cl)c1)NCCCCCN1CCCN(C(=O)Nc2ccc(Cl)c(Cl)c2)CC1
Data returned: 2

Others:
Data request: Fill blank: measured inhibition of the compound Cc1cc(NN=Cc2cccc(Cl)c2)c2ccc(F)cc2n1 is ____.
Data returned: -4

Data request: Proceed to COc1cccc(-c2ccc(C(=O)NC3CCN(Cc4ccc(C(C)(C)C)cc4)CC3)s2)c1
Data returned: -2

====

- assay_protocol: human hepatoma cell viability loss – ATP luminescence, cytotoxicity control for P. falciparum antimalarial project, primary screen (AID 2303);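 note: 0% = DMSO wells and 100% = digitonin-killed cells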
- assay_context: HepG2 viability, 24-48 h, at 10 µM
Active and inactive are the calls of the source.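 How the source made its calls: active means inhibition above 50%; inactive means the rest.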
One label from this list, please: active, inactive

// below: answered molecules
Data request: In this assay, the call recorded for CC(C)CNC(=O)c1ccnc(-c2ccc(CNCCCc3ccccc3)cc2)c1 was what?
Data returned: inactive

Data request: Proceed to Cc1cccc2[nH]c(-c3ccc(-c4cccc(NC(=O)Nc5ccc(F)c(F)c5F)c4)cc3)nc12
Data returned: inactive

Data request: Proceed to C=CC(=O)Nc1ccc(Cl)cc1C(O)c1ccccc1 (stereo not given)
Data returned: inactive

Data request: Proceed to COc1ccc(CCN(C)CCCOc2ccc(NC(=O)c3cccc4c(=O)c5ccccc5[nH]c34)cc2)cc1OC
Data returned: active

Turning now to a further record.
Data request: In this assay, the call recorded for OCC1CCN(Cc2ccc(-c3ccc(-c4nc5ccc(F)cc5[nH]4)cc3)cc2)CC1 was what?
Data returned: inactive

====

- system_name: L-lactate dehydrogenase (Plasmodium falciparum (isolate CDC / Honduras))
- assay_protocol: PfLDH activity inhibition – cell lysate, 3D7 strain, counter-screen for P. falciparum growth inhibition project (AID 2304);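 note: 0% = vehicle and 100% = reference inhibitor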
- assay_context: P. falciparum 3D7 crude extract, LDH APAD/NBT absorbance; at 2 µM; stronger effect = higher value
Active and inactive are the calls of the source. The rule behind the calls is not given here.
result_type: inhibition

Data request: Fill blank: measured inhibition of the compound N#Cc1cc(C(=O)Nc2ccccc2)c(N)nc1SCC(=O)Nc1ccc(Br)cc1 is ____.
Data returned: 1% (inactive)

Data request: Proceed to COc1ccc(/C=C/C(=O)N2CCc3cc4nccc(N5CCN6CCC[C@H]6C5)c4cc32)cc1
Data returned: -9% (inactive)

Data request: Proceed to CCC(C)CNC(=O)CN1CN(c2ccccc2)C2(CCN(C(=O)c3ccc(Br)cc3)CC2)C1=O (centres undefined)
Data returned: -2% (inactive)

Data request: Proceed to CN(C)CC(O)C(O)(c1ccccc1)c1ccc(F)cc1 (centres undefined)
Data returned: 4% (inactive)

Data request: Proceed to COc1ccc(-c2c(C(F)(F)F)nn(C)c2NC(=O)Nc2ccc(F)cc2F)cc1
Data returned: -4% (inactive)

Data request: Proceed to COc1ccc(Oc2ccc(-c3c(C)[nH]c(C)c(Cl)c3=O)cc2)cc1
Data returned: -3% (inactive)

Data request: Proceed to Cc1ccccc1C1CCN(C2CCC(NC(=O)/C=C/c3cccc(F)c3F)CC2)CC1 (centres undefined)
Data returned: -3% (inactive)

Data request: Proceed to Cc1ccc(/C=C/C(=O)NC2CCC(N3CCC(c4ccccc4C)CC3)CC2)cc1F (centres undefined)
Data returned: 2% (inactive)

Data request: Proceed to CC(C)C[C@H](NC(=O)[C@H](Cc1ccccc1)NC(=O)CCN1C(=O)COc2ccc(C(=O)O)cc21)C(=O)NC(CC1CCCCC1)C(O)CC(=O)NCCCn1ccnc1 (some centres undefined)
Data returned: -8% (inactive)

====

- assay_protocol: inhibition of 3D7 malaria parasite growth – strain 3D7 (AID 2306);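 note: 0% = DMSO wells and 100% = chloroquine plus artemisinin control wells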
- assay_context: P. falciparum 3D7 erythrocytic growth, LDH absorbance, 72 h; at 2 µM; stronger effect = higher value
result_type: growth inhibition (%)
I only need the number, in %, no unit after it.

Data request: Fill blank: measured growth inhibition of the compound NC(N)=Nc1ccc(OCCCCCOc2ccc(N=C(N)N)c(Cl)c2)cc1Cl is ____.
Data returned: 92

Others:
Data request: Fill blank: measured growth inhibition of the compound CNCc1ccc(-c2cccc(CNCc3ccc(-c4ccccc4)cc3)c2)c(C(=O)OC)c1 is ____.
Data returned: 92

Data request: Proceed to Cc1cccc2[nH]c(-c3cccc(-c4ccc(C(=O)NCc5ccccc5S(C)(=O)=O)cc4)c3)nc12
Data returned: 100

Data request: Proceed to N#Cc1ccccc1Sc1ccccc1C(=O)Nc1ccc2ccccc2n1
Data returned: 92

Data request: Proceed to CCc1cn(CCOC)c2ccc(C(=O)N[C@@H](Cc3ccccc3)[C@H](O)CNC(C)(C)CCCC(C)C)cc12
Data returned: 98

Data request: Proceed to Cc1cccc2[nH]c(-c3ccc(-c4cccc(NC(=O)c5ccncc5)c4)cc3)nc12
Data returned: 98

====

- assay_protocol: antimalarial activity against Dd2 strain (AID 2302);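 note: 0% = DMSO untreated growth and 100% = chloroquine plus artemisinin killed control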
- assay_context: P. falciparum Dd2 in RBCs, LDH growth readout, 72 h; at 2 µM; stronger effect = higher value
result_type: growth inhibition (%)
I only need the number, in %, no unit after it.

Example entries begin here.
Data request: Fill blank: measured growth inhibition of the molecule Cn1c(=O)c2nc(-c3ccc(Cl)cc3)nnc2n(CCCC#N)c1=O is ____.
Data returned: 98

Data request: Proceed to OC(CNCc1ccccc1OCc1ccccc1)c1cccc(Cl)c1 (stereo not given)
Data returned: 100

Data request: Proceed to Clc1ccc2nc(-c3cccnc3)[nH]c2c1
Data returned: 97

Data request: Proceed to N#Cc1ccc(CNCCCCCCNCc2ccc(C#N)c3ccccc23)c2ccccc12
Data returned: 96

Data request: Proceed to Nc1ccc(-c2ccc(NC(=O)Nc3ccccc3)cc2)cn1
Data returned: 93

Data request: Proceed to NC(N)=NC(=O)Nc1cc(Cl)c(F)c(Cl)c1
Data returned: 64

Data request: Proceed to COc1ccc(-c2cccc(NC(=O)c3cccc(Cl)c3)c2)cc1CN(C)CCN(C)C
Data returned: 73

Data request: Proceed to O=S1N=C(NCCCN(Cc2cccs2)c2ccccn2)C(NCc2ccccc2)=N1 (stereo not given)
Data returned: 25

Data request: Proceed to C=CCOC(=O)N1CCC(CNCc2cccc(-c3ccc(-c4nc5c(C)cccc5[nH]4)s3)c2)C1 (stereo not given)
Data returned: 82

Data request: Proceed to COc1cccc(CNC(=O)NC2CCN(c3ccnc(Nc4cc(OC)c(OC)c(OC)c4)n3)C2)c1 (stereo not given)
Data returned: 84

Others:
Data request: Fill blank: measured growth inhibition of the molecule CC1CN(c2cc(=O)n(Cc3cccc(NC(=O)Nc4ccc(-c5ccccc5)cc4)c3)cn2)CC(C)N1 (stereo not given) is ____.
Data returned: 63

Data request: Proceed to COc1cc2nc(NCCc3ccccc3)nc(NCc3ccc(C#N)cc3)c2cc1OC
Data returned: 100

Data request: Proceed to O=S(=O)(c1cc(Cl)c(Cl)cc1Cl)N1CCCCC(c2ccc(C(F)(F)F)cc2)=N1
Data returned: 99

Data request: Proceed to O=C(NCCCCN1CCC(c2ccc([N+](=O)[O-])cc2)CC1)c1ccc(NC(=O)c2ccc(Cl)cc2)cc1
Data returned: 55

Data request: Proceed to Cc1nn(-c2ccccc2)c2sc(C(=O)N(CCCN(C)C)c3nc(-c4ccccc4)cs3)cc12
Data returned: 36

Data request: Proceed to Cc1cc(C(=O)CN2C(=O)NC(C)(c3ccc4ccccc4c3)C2=O)c(C)n1Cc1ccco1 (stereo not given)
Data returned: 71
